Measured log10 of Kd, listed per entry.
# Measurement target: human insulin receptor (HIR) (human, UniProt P06213)
# Assay name: competition
No end group written: not given here. βturn = not defined here
Recorded endpoint: log10 of Kd (log10 of the value in nM)

Binder: LEEEWAQVECEVYGRGCPSESFYDWFERQL [S536]
Result number: -1.08
//
Binder: SLEEEWAQIECEVWGRCWHHSFYDWFERQL [S594]
Result number: -1.15
//
Binder: S581 (not fully specified; printed as SLEEEWAQIESEVWGR-βturn-ESFYDWFERQLG; ends and bridges not checked) chain 1: SLEEEWAQIESEVWGR-βturn chain 2: ESFYDWFERQLG
Result number: -1.92
//
Binder: S444 (peptide) chain 1: ESFYDWFERQLGGGGK chain 2: VQCEVYGRGCPS
Result number: 2.28
//
Binder: PLRESRNFYDWFVQQLE [S366]
Result number: 2.57
//
Binder: QAPSNFYDWFVREWDEE [S287]
Result number: 1.77
//
Binder: SLEEEWAQVECEVYGRGCPS [S547]
Result number: 1.69
//
Binder: SLEEEWAQVECEVYGRGCPSFYDWFERQL [S531]
Result number: -1.12
//
Binder: FHENFYDWFVRAVSKK [S107]
Result number: 3.00
//
Binder: S379 (not fully specified; listing feature) chain 1: GSLDESFYDWFERQLGKKKX chain 2: GSLDESFYDWFERQLGKKKX
Result number: 1.75
//
Binder: S438 (peptide) chain 1: ESFYDWFERQLGGGGK chain 2: DQEWAWVQCEVYGRGCPS
Result number: 1.48
//
Binder: SLEEEWAQIEEVWGRSESFYDWFERQLG [S572]
Result number: 0.68
//
Binder: HETFYSMIRSLAK [S117]
Result number: 1.43
